The values you see were collected from BindingDB's records for doi:10.1016/s0960-894x(00)00142-6.

- target_or_system: Glutathione S-transferase 2 (Onchocerca volvulus)
- procedure_details: The compound was tested for it's inhibitory activity against Onchocerca volvulus Glutathione S-transferase 2
measurement_name: pIC50
# pIC50: negative log10 of molar concentration; output just the value

Study these solved cases before continuing.
compound: CC(C)C(=O)CC(SCC(NC(=O)CCC(N)C(=O)O)C(=O)NCC(=O)O)c1ccccc1 (centres undefined)
pIC50: 4.50
//
compound: CCCCOC(=O)CC(SCC(NC(=O)CCC(N)C(=O)O)C(=O)NCC(=O)O)C(=O)O (centres undefined)
pIC50: 4.32
//
compound: NC(CCC(=O)NC(CSC1CCCC(=O)C1)C(=O)NCC(=O)O)C(=O)O (centres undefined)
pIC50: 3.66

Recorded pIC50 for `N[C@@H](CCC(=O)N[C@@H](CS[C@H](CC(=O)O)C(=O)O)C(=O)NCC(=O)O)C(=O)O` , please?
4.72
